Molecular target: TAOK1 (human) (UniProt Q7L7X3)
Sequence (Q7L7X3 whole entry, looked up): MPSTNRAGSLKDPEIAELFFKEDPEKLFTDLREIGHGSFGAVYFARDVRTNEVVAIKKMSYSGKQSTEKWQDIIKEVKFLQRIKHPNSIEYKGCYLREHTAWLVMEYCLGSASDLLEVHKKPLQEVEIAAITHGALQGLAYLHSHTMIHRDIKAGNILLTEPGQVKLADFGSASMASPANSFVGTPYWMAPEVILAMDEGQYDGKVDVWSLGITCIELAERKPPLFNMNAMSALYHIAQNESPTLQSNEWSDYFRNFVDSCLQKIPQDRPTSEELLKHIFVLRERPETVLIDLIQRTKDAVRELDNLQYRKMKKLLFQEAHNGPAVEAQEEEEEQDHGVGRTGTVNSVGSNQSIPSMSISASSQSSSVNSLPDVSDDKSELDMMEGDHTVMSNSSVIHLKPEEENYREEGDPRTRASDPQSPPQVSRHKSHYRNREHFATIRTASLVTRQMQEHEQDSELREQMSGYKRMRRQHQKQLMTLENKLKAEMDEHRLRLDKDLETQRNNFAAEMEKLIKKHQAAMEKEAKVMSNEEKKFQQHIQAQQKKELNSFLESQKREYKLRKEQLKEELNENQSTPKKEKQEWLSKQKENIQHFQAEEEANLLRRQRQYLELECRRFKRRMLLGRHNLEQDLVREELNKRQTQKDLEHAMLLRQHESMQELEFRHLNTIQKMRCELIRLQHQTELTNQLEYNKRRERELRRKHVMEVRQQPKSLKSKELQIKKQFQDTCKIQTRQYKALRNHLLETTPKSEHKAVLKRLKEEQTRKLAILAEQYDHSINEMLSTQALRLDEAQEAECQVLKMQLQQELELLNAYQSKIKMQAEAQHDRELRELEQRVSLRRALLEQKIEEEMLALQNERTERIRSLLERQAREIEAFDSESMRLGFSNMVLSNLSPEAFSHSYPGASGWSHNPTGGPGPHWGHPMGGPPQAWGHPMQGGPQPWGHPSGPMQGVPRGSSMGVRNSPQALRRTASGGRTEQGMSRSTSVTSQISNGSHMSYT
Assay: radiometric filter-binding kinase assay
Conditions: compound 1.0 µM
Measurement type: residual activity (%)

Example entries and their recorded answers appear below.
{"columns": ["Compound", "residual activity [%]"],
 "data": [
  ["NC1(c2ccc(-c3nc4ccn5c(=O)[nH]nc5c4cc3-c3ccccc3)cc2)CCC1", 90],
  ["c1ccc2c(-c3cnn4cc(-c5ccc(N6CCNCC6)cc5)cnc34)ccnc2c1", 110],
  ["NCC(=O)Nc1ccc(-n2nc(C(F)(F)F)cc2-c2ccc3c(ccc4ccccc43)c2)cc1", 103],
  ["Nc1cccc2c1CN(C1CCC(=O)NC1=O)C2=O (centres undefined)", 106]
]}

I. CC1=C(CO)C(=O)O[C@@H]([C@@H](C)[C@H]2CC[C@H]3[C@@H]4C[C@H]5O[C@]56[C@@H](O)C=CC(=O)[C@]6(C)C4CC[C@]23C)C1 (some centres undefined)
II. COc1ccc(N(C(=O)Nc2c(C)cccc2C)c2cc(Nc3ccc(N4CCN(C)CC4)cc3)ncn2)c(OC)c1
Query: # argmax over residual activity for candidates I and II Write down the label of the entry you select.
Result: I

Just for reference, the kinase profiling compilation of Christmann-Franck et al. (2016) is where these values come from.
